Data provenance: PubChem BioAssay (NCI)

Record form. Attribute: growth. Fill in for each entry.
Tested on: HCT-15 colon
TEST SUMMARY: NCI-60 one-dose screen, 48 h (100 = growth as untreated, 0 = no growth, -100 = all killed)
CONDITION DESCRIPTION: 10 µM unless noted
Compounds without any hit were thinned out: in the full panel of roughly 83,000, 20% have a hit.
Number only, in %; omit the unit.

(Q) Return reported growth; argument: "O=C1C(Cl)=C(N=Nc2c(Cl)c(O)c3ccccc3c2O)C(=O)c2ccccc21"
(A) 61.7

(Q) What about this compound? "N#Cc1cnc2cc(OC[C@H](O)CO)c(NC(=O)CC3CSSC3)cc2c1Nc1ccc(OCc2cccc(F)c2)c(Cl)c1"
(A) 27.3

(Q) Then "COc1cc(/C=C/C(=O)Nc2ccc3c(c2)/C(=C\c2cccn2C)C(=O)N3)cc(OC)c1OC" ?
(A) 32.5

(Q) Try this compound next: "COc1ccc2c(c1)nc(N)c1c3cc(C)c(C)cc3cn21"
(A) 48.7

(Q) Query "Cc1c(C(N)=O)sc2c1C(=O)N(Cc1ccccc1)C1=NN=C(c3ccc(Cl)cc3)CN12" next
(A) 22.6

(Q) Now consider "NNC(=O)NO" .
(A) 102

(Q) Moving on to "O=C1/C(=C/c2ccc([N+](=O)[O-])s2)Oc2ccc(Br)cc21"
(A) -3.34

(Q) Now the compound CN(CCOc1ccc(CC2SC(=O)NC2=O)cc1)c1ccccn1 (stereo unspecified)
(A) 96.2

(Q) Record: "COc1cccc(-c2nnc(N)o2)c1"
(A) 106

(Q) Then what about the compound "O=C(CCc1nnc(Cn2ccnc2)o1)c1nc2ccccc2[nH]1" ?
(A) 100

(Q) Repeat with "O=C1c2nsnc2C(=O)c2c(F)c(F)c(F)c(F)c21"
(A) -59.1

(Q) Consider next the compound CCOC(=O)C1C(=O)OC2CCCCC21 (stereo unspecified) in the same way.
(A) 101

(Q) What do you have for "COc1ccc2nccc(/C=C/c3ccnc4ccc(OC)cc34)c2c1" ?
(A) 101

(Q) Next compound up: "c1cnc2ccc3ncccc3c2c1"
(A) 108

(Q) Cool, now "COc1ccc(-c2c(-c3cc(OC)c(OC)c(OC)c3)noc2N)cc1"
(A) 28

(Q) Note, next up: "N#CCNc1ccccc1N"
(A) 108

(Q) Continue with "Cc1nn(-c2ccccc2)c2nc3c(nc12)C(=O)CCC3"
(A) 88.5

(Q) Next up: "CCN1C(=O)c2ccc3c4c(ccc(c24)C1=O)C(=O)N(CCCNCc1ccccc1OC)C3=O"
(A) -78.3

(Q) Please answer likewise for "COC(=O)[C@]12CC[C@@H](C)[C@H](C)[C@@H]1C1=CC[C@@H]3[C@@]4(C)C=C(O)C(=O)[C@@]5(C)COC(=C54)C[C@@]3(C)[C@]1(C)CC2"
(A) -82.3

(Q) // next record CO[C@H]1/C=C/O[C@@]2(C)Oc3c(C)c(O)c4c(O)c(c(/C=N/N5CCN(C)CC5)c(O)c4c3C2=O)NC(=O)/C(C)=C\C=C\C(C)[C@H](O)[C@@H](C)[C@@H](O)[C@@H](C)[C@@H](OC(C)=O)[C@@H]1C (stereo partly specified)
(A) 87.7

(Q) Lookup "O=C(NCCCO)c1cc(Cl)ccc1O"
(A) 77.5
